- System: 138582-337-R-J1-PDC spheroids with HUVEC/MSC, viability;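 note: spheroids exposed to compounds for seven days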
- experiment description: Anticancer human tumor 138582-337-R-J1-PDC patient-derived Merkel cell tumor cell line growth inhibition [IpAb]
- protocol conditions: curve of first compound; second compound 0.01 µM
experimental readout: pIC50
Just so you know, pIC50 here is -log10 of the concentration in molar units; reply with that number alone.

CC(C)n1nc(-c2ccc3oc(N)nc3c2)c2c(N)ncnc21 + CCN1CCN(Cc2ccc(Nc3ncc(F)c(-c4cc(F)c5nc(C)n(C(C)C)c5c4)n3)nc2)CC1 | 7.22

Query: Lookup: pIC50 / 138582-337-R-J1-PDC spheroids with HUVEC/MSC, viability / CC(C)(C)c1cnc(CSc2cnc(NC(=O)C3CCNCC3)s2)o1 + CCN1CCN(Cc2ccc(Nc3ncc(F)c(-c4cc(F)c5nc(C)n(C(C)C)c5c4)n3)nc2)CC1
Result: 6.84
